# protein stability index values compiled below
test: protein stability index of a GFP-peptide fusion (yeast GPS) (PSI 1-4); higher = more stable; sorted into four equal gates, so the index is relative within each strain; conditions: ubr1∆

TDRITRLFIKPGQKMSL [BRN1]; 3.17
AENQTGESTVESEKLVT [RPC82]; 3.45
LVIKSGKYTLGYKSTVK [RPL30]; 2.87
DHILFTKTFIFIYKKVL [SRB8]; 1.11
TFANPNRTFTDPPFRIE [TAF14]; 2.27
LLSFVLGVVFGRGGSGW [YML031W/NDC1]; 2.37
DRCVDPEDPYFNTLVRI [DIS3]; 3.4
RSKSSHKNERRVLEIQT [SKI6]; 3.37
KLYDKTENDIKALQSIG [RPT4]; 2.4
SHLFNEYSYVDSNMDSI [RPN4]; 3.06

// query Name the reported protein stability index value associated with the sequence FSQKEMAFNLLGLLTPE [FAS2]
// result 2.42

// query // repeat for AHRGIRHFWGLRVRGQH [RPS18A] and report
// result 2.66

// query // repeat for YGPPGTGKTLLAKAVAA [RPT4] and report
// result 1.93

// query // repeat for EGDIQVLKSYGAAPYAA [RPT1] and report
// result 2.82

// query // repeat for DTIDNVKSKIQDKEGIP [RPS31] and report
// result 3.57
